The origin of these recorded values is the supplement of paper PMC10567573.

B1: TRIM39 (parent)
chain: CKACITRWWEDLERDFPCPVCRKT

Variants of: B1
Test: protein stability index of a GFP-peptide fusion (GPS, HEK-293T) (PSI 1-6); higher = more stable;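 note: lentivirally expressed fusions sorted by FACS into six bins by GFP to DsRed ratio, PSI derived from sequencing read proportions per bin multiplied by bin number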
Details: c terminus: a fixed tail appended
Label 1 for high-side protein stability index (at or above 4) and -1 for low-side protein stability index (below it).

mutation key: T24D
class label: 1
//
mutation key: I5N
class label: 1
//
mutation key: T6W
class label: -1
//
mutation key: C4M
class label: -1
//
mutation key: E10M
class label: -1

protein stability index >= 4 for `I5K` ? -1

// query: `C18T` -1

`E10L` ? -1

Thanks! And `C18V` ? -1

Consider next the variant `T24K` in the same way. -1

Same question for `C1R` please. -1

Param item: `D15Q` -1
